test-summary: hepatitis C replication reporter changes, two-sided – Huh7 cells, luciferase reporter, HCV replication inhibitor project, primary screen (AID 1109);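 also: huh7 hepatoma cells harbouring a luciferase neomycin HCV replicon reporter; luciferase luminescence as measure of HCV replicon replication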
measurement-context: Huh7 HCV replicon luciferase reporter, 48 h; higher = more signal
z-score values by entry
quantity-name: z-score

CCCc1cc2c(n1Cc1ccc(C)cc1)C(C)C1CN(C(=O)c3ccccc3)C(C)(C(=O)OC)C21 (configuration not stated)    -1.33
C[C@@H]1OC=C2[C@@H](O)[C@H]3O[C@H]3C(=O)[C@]23[C@H]1[C@H]1C2=C([C@@H](O)[C@H]4O[C@H]4C2=O)[C@@H]3O[C@@H]1C    -1.29
OCc1ccc(C2=CC(C3CC3)N(Cc3sc4ccccc4c3Cl)CC2)cc1 (configuration not stated)    -1.68
COC(=O)[C@@]1(Cc2ccccc2)[C@H]2c3cc(C(=O)N(C)C)n(C)c3C[C@H]2CN1C(=O)c1ccccc1    -1.42
OCc1ccc(C2=CC(c3cccs3)N(Cc3cccc(OC(F)(F)F)c3)CC2)cc1 (configuration not stated)    -1.07
O=P(c1ccccc1)(c1ccccc1)N1CC2(CC2)CC(O)(c2ccccc2)C1 (configuration not stated)    -1.06
C[C@@H]1Cc2c(cnc3c2CN(C)CC3)CO1    -0.491
CN1CCC(c2ccc(CO)cc2)=CC1c1cccs1 (configuration not stated)    1.05
COC(=O)[C@H]1C(=O)c2ccccc2O[C@@](C(=O)OC)(c2ccccc2)[C@@H]1c1ccccc1    -0.424
CCCc1cc2c(n1Cc1ccco1)C(C)C1CN(C(=O)c3ccccc3)C(C)(C(=O)OC)C21 (configuration not stated)    -1.28
C=C(CC1(CNP(=O)(c2ccccc2)c2ccccc2)CC1)c1ccccc1    -1
CN1CCc2nc(CO)c(CO)cc2C1    -0.365

###

test-summary: viability loss in HepG2 hepatoma cells – cell-based, cherry-picks, set 2, cytotoxicity control, dose response (AID 687002)
measurement-context: ATP luminescence (CellTiter-Glo), 48 h; series mostly up to 26 µM
Entries with a potency or affinity are not part of this list. Calls of active or inactive are those of the source.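 The calls were made as follows: active = a dose-response fit showing signal loss, with half-maximal concentration no higher than twice the top tested dose; inconclusive = flat fit between 30% and 70% signal loss, or poor fit; inactive = the rest.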
quantity-name: outcome

CC(=O)OC1(C)CC(C)C(=O)C(C(O)CC2CC(=O)NC(=O)C2)C1 (centres undefined)    inactive
CC[C@H](C)[C@@H]1NC(=O)CNC(=O)c2csc(n2)[C@H](C(C)(C)O)OC(=O)C(C)(C)[C@H](CCCC(C)(Cl)Cl)OC(=O)c2csc1n2    inactive
C[C@@H]1CN([C@@H](C)CO)C(=O)CCCn2nncc2CO[C@H]1CN(C)C(=O)Oc1cccc2ccccc12    inactive
C[C@H]1CN([C@@H](C)CO)C(=O)CCCn2nncc2CO[C@H]1CN(C)C(=O)Oc1cccc2ccccc12    inactive

###

Tested on: Human papillomavirus type 1a protein E7 (residues 44-93)
test-summary: small molecules binding HPV E7 44-93 – biochemical, small-molecule microarray, residues 44-93, 635 nm fluorescence, primary screen (AID 1108);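 also: E7 fragment applied at 1 µg/mL in TBST for 1 h at 4 C; score combines spot fluorescence with its signal to noise ratio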
measurement-context: fluorescence 635 nm, higher = more signal
quantity-name: composite z-score

COc1cc2c(cc1O)C=[N+](C)CC2    -2.1
CCOC(=O)[C@H]1CC=C2C(=O)Oc3ccccc3[C@@H]21    0.252
C[C@H]1O[C@H]2C3=C(C(=O)[C@@H]4O[C@@H]4[C@@H]3O)[C@@H]1[C@@H]1[C@@H](C)OC=C3[C@@H](O)[C@H]4O[C@H]4C(=O)[C@]312    -1.18
C=C(CC1(C(C)NP(=O)(c2ccccc2)c2ccccc2)CC1)c1ccccc1 (stereo not drawn)    1.48
CCc1cc2c(nc1CC)CCN(CCC(C)=NOC)C2    0.711
CN1CCc2nc(CO)c(CO)cc2C1    0.22
CCCC[C@@H]1C[C@H]1[C@@H](NP(=O)(c1ccccc1)c1ccccc1)c1ccc(Cl)cc1    -1.21
CCCC=C(CCC)[C@@H](NP(=O)(c1ccccc1)c1ccccc1)c1ccccc1    1.28
CCOC(=O)[C@H]1CC=C2C(=O)Oc3ccc(Br)cc3[C@@H]21    0.891
CN1CCC(c2ccc(CO)cc2)=CC1c1cccs1 (stereo not drawn)    -0.895
CCCc1cc2c(n1Cc1ccc(C)cc1)C(C)C1CN(C(=O)c3ccccc3)C(C)(C(=O)OC)C21 (stereo not drawn)    0.294
CCCc1cc2c(n1Cc1ccco1)C(C)C1CN(C(=O)c3ccccc3)C(C)(C(=O)OC)C21 (stereo not drawn)    0.0223
O=P(c1ccccc1)(c1ccccc1)N1CC2(CC2)CC(O)(c2ccccc2)C1 (stereo not drawn)    1.04
COC(=O)[C@@]1(Cc2ccccc2)[C@H]2c3cc(C(=O)N(C)C)[nH]c3C[C@H]2CN1C(=O)c1ccccc1    -0.452
COC(=O)[C@@]1(Cc2ccccc2)[C@H]2c3cc(C(=O)N(C)C)n(C)c3C[C@H]2CN1C(=O)c1ccccc1    -1.91
COC(=O)[C@H]1[C@H](c2ccccc2)C(=O)[C@]2(O)c3ccccc3O[C@@]12c1ccccc1    0.304
c1ccc(-c2cc3c(nc2-c2ccccc2)CCNC3)cc1    -0.903
COC(=O)[C@@]1(Cc2ccc(F)cc2)[C@H]2c3cc(C(=O)N(C)C)[nH]c3C[C@H]2CN1C(=O)c1ccccc1    0.717

###

test-summary: changes in parasitized red cell lysis, either direction – P. falciparum Indochina, OD700, 3 h, PSAC antagonist project, primary screen (AID 1156)
measurement-context: P. falciparum-infected erythrocytes, osmotic lysis; higher = more signal, called active from +8 up or from −8 down unless noted
The source made the active and inactive calls.
The following compounds are listed with their measured z-score values.
quantity-name: z-score

O=P(c1ccccc1)(c1ccccc1)N1CC2(CC2)CC(O)(c2ccccc2)C1 (stereo not given)    0.483 (inactive)
COc1cc2c(cc1O)C(C)N(C)CC2 (stereo not given)    -0.306 (inactive)
C=C(CC1(C(C)NP(=O)(c2ccccc2)c2ccccc2)CC1)c1ccccc1 (stereo not given)    0.512 (inactive)
COC(=O)[C@@]1(Cc2ccc(F)cc2)[C@H]2c3cc(C(=O)N(C)C)[nH]c3C[C@H]2CN1C(=O)c1ccccc1    0.219 [setting not given] (inactive)
COc1cc2c(cc1O)C=[N+](C)CC2    0.0284 (inactive)
CCCc1cc2c(n1Cc1ccc(C)cc1)C(C)C1CN(C(=O)c3ccccc3)C(C)(C(=O)OC)C21 (stereo not given)    0.454 (inactive)
C[C@@H]1OC=C2[C@@H](O)[C@H]3O[C@H]3C(=O)[C@]23[C@H]1[C@H]1C2=C([C@@H](O)[C@H]4O[C@H]4C2=O)[C@@H]3O[C@@H]1C    -0.655 (inactive)
CCc1cc2c(nc1CC)CCN(CCC(C)=NOC)C2    0.194 (inactive)
COC(=O)NCC=Cc1nc(CCC=CC(=O)O[C@H]2CC3CC(=O)O[C@@H](C=CCC(C)C)C[C@@H]4CC[C@H](C)[C@@H](C[C@@H](OC)C[C@H](C2)O3)O4)co1    -0.0546 (inactive)
CCCc1cc2c(n1Cc1cccc(Cl)c1)C(C)C1CN(C(=O)c3ccccc3)C(C)(C(=O)OC)C21 (stereo not given)    1.22 (inactive)

###

test-summary: probe aEGFR binding to arrayed compounds – biochemical, biotinylated probe, 635/667 nm fluorescence, primary screen (AID 1097);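 also: probe is a biotinylated anti-EGFR antibody binding compounds printed on slides; score combines fluorescence near 667 nm and signal to noise of each spot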
measurement-context: higher = more signal; small-molecule microarray, probe aEGFR, fluorescence unless noted
Measured composite z-score of individual entries
quantity-name: composite z-score

COC(=O)[C@@]1(Cc2ccccc2)[C@H]2c3cc(C(=O)N(C)C)[nH]c3C[C@H]2CN1C(=O)c1ccccc1    -0.116
COC(=O)[C@H]1C(=O)c2ccccc2O[C@@](C(=O)OC)(c2ccccc2)[C@@H]1c1ccccc1    -0.0093
COc1cc2c(cc1O)C=[N+](C)CC2    -0.0967
C=C(CC1(CNP(=O)(c2ccccc2)c2ccccc2)CC1)c1ccccc1    -0.0493
CN1CCc2nc(CO)c(CO)cc2C1    0.0668
C=C(CC1(C(C)NP(=O)(c2ccccc2)c2ccccc2)CC1)c1ccccc1 (centres undefined)    -0.135
COC(=O)[C@H]1[C@@H](O)[C@@]2(O)c3c(OC)cc(OC)cc3O[C@@]2(c2ccc(OC)cc2)[C@@H]1c1ccccc1    -0.0714
COC(=O)NCC=Cc1nc(CCC=CC(=O)O[C@H]2CC3CC(=O)O[C@@H](C=CCC(C)C)C[C@@H]4CC[C@H](C)[C@@H](C[C@@H](OC)C[C@H](C2)O3)O4)co1    -0.201
CCCc1cc2c(n1CCO)C(C)C1CN(C(=O)c3ccccc3)C(C)(C(=O)OC)C21 (centres undefined)    0.427

###

test-summary: JC-1 mitochondrial signal, unstimulated MM1S myeloma – cell-based, JC-1 fluorescence, 24 h, 100 nL compound, profiling panel (AID 1170)
measurement-context: MM1S mitochondrial potential, higher = more signal
Form field: z-score (one value per entry).
quantity-name: z-score

C=C(CC1(CNP(=O)(c2ccccc2)c2ccccc2)CC1)c1ccccc1    -0.987
COC(=O)C1(C)C=C2C(=C(C)C(=O)C2C)CN1 (centres undefined)    -0.221
COc1cc2c(cc1O)C=[N+](C)CC2    -0.635
COC(=O)[C@@]1(Cc2ccccc2)[C@H]2c3cc(C(=O)N(C)C)[nH]c3C[C@H]2CN1C(=O)c1ccccc1    -0.807

Recorded values, source PubChem BioAssay.
